# credit: ChEMBL document CHEMBL1152569

Catalogue of molecules with associated Ki
Biological target: Histamine H1 receptor (Homo sapiens, UniProt P35367)
Sequence (P35367 whole entry): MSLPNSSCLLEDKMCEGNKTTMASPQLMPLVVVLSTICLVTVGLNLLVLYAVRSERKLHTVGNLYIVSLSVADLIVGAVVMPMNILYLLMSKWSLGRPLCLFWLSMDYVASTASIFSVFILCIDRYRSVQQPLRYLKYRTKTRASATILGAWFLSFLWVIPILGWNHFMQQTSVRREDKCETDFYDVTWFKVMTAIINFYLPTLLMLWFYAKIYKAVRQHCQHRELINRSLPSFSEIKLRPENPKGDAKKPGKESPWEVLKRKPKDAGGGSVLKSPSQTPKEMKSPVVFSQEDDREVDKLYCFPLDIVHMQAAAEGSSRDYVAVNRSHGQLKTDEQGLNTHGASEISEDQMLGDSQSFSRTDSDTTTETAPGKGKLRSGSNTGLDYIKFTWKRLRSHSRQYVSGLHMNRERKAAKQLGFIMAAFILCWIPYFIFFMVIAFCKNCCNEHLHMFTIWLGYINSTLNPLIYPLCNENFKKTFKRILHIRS
Experiment: Displacement of [3H]chlorphniramine from human histamine H1 receptor expressed in cells
Your answer should be a plain number; it is taken to be in nM.

Worked set:
[[record]]
record_smiles = "CN(C)CC(c1ccccc1)c1ccccc1"
assayed_target = "Histamine H1 receptor (Homo sapiens, UniProt P35367)"
units_label = "nM"
measured_result = 5170

[[record]]
record_smiles = "NCCCC1c2ccccc2Cc2ccccc21"
assayed_target = "Histamine H1 receptor (Homo sapiens, UniProt P35367)"
units_label = "nM"
measured_result = 175

[[record]]
record_smiles = "NCCC1c2ccccc2Cc2ccccc21"
assayed_target = "Histamine H1 receptor (Homo sapiens, UniProt P35367)"
units_label = "nM"
measured_result = 137


Query block: Fill in Ki for record CNCCCC1c2ccccc2Cc2ccccc21
Result block: 3

Query block: Fill in Ki for record CNCCCC(c1ccccc1)c1ccccc1
Result block: 386

Query block: Fill in Ki for record CN(C)CCC1c2ccccc2Cc2ccccc21
Result block: 6

Query block: Fill in Ki for record NCCCC(c1ccccc1)c1ccccc1
Result block: 1670

* * *

Target: 5-hydroxytryptamine receptor 2A (Homo sapiens, UniProt P28223)
Sequence (P28223 whole entry): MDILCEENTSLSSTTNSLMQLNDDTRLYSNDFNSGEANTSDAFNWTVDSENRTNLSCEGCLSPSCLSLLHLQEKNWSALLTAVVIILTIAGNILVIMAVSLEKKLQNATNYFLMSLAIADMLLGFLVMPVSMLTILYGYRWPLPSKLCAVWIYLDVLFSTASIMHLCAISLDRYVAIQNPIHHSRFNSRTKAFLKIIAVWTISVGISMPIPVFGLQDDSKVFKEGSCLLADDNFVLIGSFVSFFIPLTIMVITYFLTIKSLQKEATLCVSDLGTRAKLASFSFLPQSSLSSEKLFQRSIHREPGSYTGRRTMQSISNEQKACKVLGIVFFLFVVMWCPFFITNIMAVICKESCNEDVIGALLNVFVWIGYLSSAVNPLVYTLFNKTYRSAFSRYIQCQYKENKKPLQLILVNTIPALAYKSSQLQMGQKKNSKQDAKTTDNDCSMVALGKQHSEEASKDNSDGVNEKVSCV
Assay: Displacement of [3H]ketanserin from human 5HT2A receptor expressed in cells
The label Satisfied is reserved for Ki strictly under 2 µM; Not satisfied covers values equal to or above it.

Below, 5 compounds whose answers are already recorded.
[[record]]
record_smiles = "CN(C)CCC1c2ccccc2Cc2ccccc21"
assayed_target = "5-hydroxytryptamine receptor 2A (Homo sapiens, UniProt P28223)"
class_name = "Satisfied"

[[record]]
record_smiles = "CNCCCC(c1ccccc1)c1ccccc1"
assayed_target = "5-hydroxytryptamine receptor 2A (Homo sapiens, UniProt P28223)"
class_name = "Satisfied"

[[record]]
record_smiles = "CN(C)CCCC(c1ccccc1)c1ccccc1"
assayed_target = "5-hydroxytryptamine receptor 2A (Homo sapiens, UniProt P28223)"
class_name = "Satisfied"

[[record]]
record_smiles = "NCCC(c1ccccc1)c1ccccc1"
assayed_target = "5-hydroxytryptamine receptor 2A (Homo sapiens, UniProt P28223)"
class_name = "Not satisfied"

[[record]]
record_smiles = "CN(C)CCC(c1ccccc1)c1ccccc1"
assayed_target = "5-hydroxytryptamine receptor 2A (Homo sapiens, UniProt P28223)"
class_name = "Satisfied"


Query block: In the record for NCCCC(c1ccccc1)c1ccccc1 , is Ki less than 2 µM?
Result block: Not satisfied

Query block: In the record for CNCCC1c2ccccc2Cc2ccccc21 , is Ki less than 2 µM?
Result block: Satisfied

Query block: In the record for CNCC(c1ccccc1)c1ccccc1 , is Ki less than 2 µM?
Result block: Not satisfied

Query block: In the record for CNCCC(c1ccccc1)c1ccccc1 , is Ki less than 2 µM?
Result block: Satisfied

Query block: In the record for CN(C)CC(c1ccccc1)c1ccccc1 , is Ki less than 2 µM?
Result block: Not satisfied

* * *

Target: Histamine H1 receptor (Homo sapiens, UniProt P35367)
Test: Displacement of [3H]chlorphniramine from human histamine H1 receptor expressed in cells
OBSERVABLE: Ki

Worked set:
[[record]]
record_smiles = "CN(C)CC1c2ccccc2Cc2ccccc21"
measured_result = "25 nM"

[[record]]
record_smiles = "NCCC(c1ccccc1)c1ccccc1"
measured_result = "2760 nM"

[[record]]
record_smiles = "CNCC1c2ccccc2Cc2ccccc21"
measured_result = "189 nM"

[[record]]
record_smiles = "CN(C)CCCC1c2ccccc2Cc2ccccc21"
measured_result = "0.5 nM"


Query block: Fill in Ki for record CNCCC(c1ccccc1)c1ccccc1
Result block: 64 nM

Query block: Fill in Ki for record NCC1c2ccccc2Cc2ccccc21
Result block: 197 nM

Query block: Fill in Ki for record CN(C)CCCC(c1ccccc1)c1ccccc1
Result block: 70 nM

Query block: Fill in Ki for record NCC(c1ccccc1)c1ccccc1
Result block: > 10000 nM

Query block: Fill in Ki for record CN(C)CCC(c1ccccc1)c1ccccc1
Result block: 75 nM

Query block: Fill in Ki for record CNCCC1c2ccccc2Cc2ccccc21
Result block: 48 nM
